Biological target: Endoribonuclease toxin MazF (Escherichia coli K-12)
Sequence (P0AE70 whole entry): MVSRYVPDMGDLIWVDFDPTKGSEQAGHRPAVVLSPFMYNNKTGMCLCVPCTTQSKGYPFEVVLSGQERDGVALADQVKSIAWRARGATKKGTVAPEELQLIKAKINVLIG
Test: MazF toxin RNase activators, dose response, biochemical, fluorescence, single-stranded RNA substrate, uHTS hits (AID 588481)
Assay type: functional
Active and inactive are the calls of the source.
Parameter: EC50

> print(dat)
                                 molecule  parameter     readout.value
1  N=C(N)c1ccc(/C=C/c2ccc(C(=N)N)cc2O)cc1       EC50  4.77 µM (active)

Prompt line: State measured EC50 of the molecule O=[N+]([O-])c1cc(C(F)(F)F)ccc1NCC1CCCO1 (configuration not stated) with Endoribonuclease toxin MazF (Escherichia coli K-12).
Response line: > 99 µM (inactive)

Prompt line: State measured EC50 of the molecule "Cc1cc(NC(=O)/C(C#N)=C/c2ccc(-c3ccc(SC(F)F)cc3)o2)n(-c2ccccc2)n1" with Endoribonuclease toxin MazF (Escherichia coli K-12).
Response line: > 99 µM (inactive)

Prompt line: State measured EC50 of the molecule "NS(=O)(=O)c1ccc(CNC(=O)COc2ccc3c4c(c(=O)oc3c2)CCCC4)cc1" with Endoribonuclease toxin MazF (Escherichia coli K-12).
Response line: > 99 µM (inactive)

###

Molecular target: Paired box protein Pax-8 (Homo sapiens, UniProt Q06710)
Sequence (Q06710 whole entry): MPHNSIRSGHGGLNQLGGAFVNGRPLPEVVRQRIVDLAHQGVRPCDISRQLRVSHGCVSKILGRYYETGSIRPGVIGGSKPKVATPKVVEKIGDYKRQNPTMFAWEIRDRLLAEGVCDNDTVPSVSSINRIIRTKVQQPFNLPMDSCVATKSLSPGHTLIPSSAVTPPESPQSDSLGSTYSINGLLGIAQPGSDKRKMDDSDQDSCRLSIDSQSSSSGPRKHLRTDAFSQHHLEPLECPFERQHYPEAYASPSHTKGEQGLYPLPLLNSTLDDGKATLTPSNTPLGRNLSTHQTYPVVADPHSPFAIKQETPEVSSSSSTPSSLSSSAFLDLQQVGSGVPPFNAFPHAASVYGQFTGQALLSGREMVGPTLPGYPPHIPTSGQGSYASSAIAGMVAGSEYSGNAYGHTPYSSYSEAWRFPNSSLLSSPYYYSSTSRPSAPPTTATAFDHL
Experiment: inhibitors of PAX8-driven TPO luciferase reporter, dose response, RMG-I cells, cherry-pick (AID 687027);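 also: luciferase reporter driven by Pax8 target thyroperoxidase promoter measured by SteadyGlo luminescence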
Assay type: functional, cell-based
Active and inactive are the calls of the source.
AC50 for assorted compounds

Solved entries:
> print(dat)
                                   compound     readout.value
1  O=S(=O)(Nc1cc(Sc2nc[nH]n2)c(O)c2ccccc12)c1ccccc1  9.52 µM (active)
2  O=C(Nc1cccc(F)c1)N1CCCCN2[C@@H](CO)[C@H](c3ccc(C#Cc4ccccc4)cc3)[C@@H]2C1  9.89 µM (active)
3  COc1ccc(S(=O)(=O)Nc2ccc3c(c2)C(=O)N([C@H](C)CO)C[C@H](C)[C@@H](CN(C)Cc2ccc(Cl)c(Cl)c2)OCCCC[C@@H](C)O3)cc1  10.2 µM (active)
4  COc1cc(Cl)c(NC2=CC(=O)C(=O)c3ccccc32)c(OC)c1  4.49 µM (active)
5  COc1ccc(S(=O)(=O)N(C)C[C@H]2Oc3ccc(NC(=O)Nc4ccc(C(F)(F)F)cc4)cc3CC(=O)N([C@H](C)CO)C[C@@H]2C)cc1  11.9 µM (active)

Prompt line: Report AC50 for "COc1ccc(NC(=O)Nc2ccc3c(c2)CC(=O)N([C@@H](C)CO)C[C@@H](C)[C@@H](CN(C)Cc2ccc(Oc4ccccc4)cc2)O3)cc1"
Response line: 25.3 µM (active)

Prompt line: Report AC50 for "C[C@@H]1CCCCO[C@@H](CN(C)C(=O)Nc2ccccc2)[C@H](C)CN([C@H](C)CO)C(=O)c2cc(NC(=O)Nc3ccc(C(F)(F)F)cc3)ccc2O1"
Response line: 3.07 µM (active)

Prompt line: Report AC50 for Nc1[nH]cnc2c(C3OC(CO)C(O)C3O)cnc1-2 (stereo not drawn)
Response line: < 0.26 µM (active)

The origin of these recorded values is ChEMBL document CHEMBL1201862.
